Where do the numbers come from? From paper PMC6218659.

Form field: MIC (one value per entry).
Tested on: B. cereus ATCC11778
Assay: Micro-broth dilution and drop plate antimicrobial susceptibility test
Type: cell-based, Bacillus cereus
Details: Bacillus cereus, ATCC11778
// units = µg/mL; emit number, no label

>  <mol.smiles>
CC(C)=CCC[C@H](C)CC(=O)N[C@H]1[C@H](O[C@H]2O[C@H](CO)[C@@H](O)[C@H](O)[C@H]2NC(=O)C[C@@H](C)CCC=C(C)C)O[C@H](C[C@@H](O)[C@H]2O[C@@H](n3ccc(=O)[nH]c3=O)[C@H](O)[C@@H]2O)[C@H](O)[C@@H]1O

>  <units>
µg/mL

>  <MIC>
83

$$$$
>  <mol.smiles>
CCCCCCC(=O)N[C@H]1[C@H](O[C@H]2O[C@H](CO)[C@@H](O)[C@H](O)[C@H]2NC(=O)CCCCCC)O[C@H](C[C@@H](O)[C@H]2O[C@@H](n3ccc(=O)[nH]c3=O)[C@H](O)[C@@H]2O)[C@H](O)[C@@H]1O

>  <units>
µg/mL

>  <MIC>
83

$$$$

Documented MIC of CCCCCCCCCC(=O)N[C@H]1[C@H](O[C@H]2O[C@H](CO)[C@@H](O)[C@H](O)[C@H]2NC(=O)CCCCCCCCC)O[C@H](C[C@@H](O)[C@H]2O[C@@H](n3ccc(=O)[nH]c3=O)[C@H](O)[C@@H]2O)[C@H](O)[C@@H]1O : 0.33

Looking up CCCCCCCCC(=O)N[C@H]1[C@H](O[C@H]2O[C@H](CO)[C@@H](O)[C@H](O)[C@H]2NC(=O)CCCCCCCC)O[C@H](C[C@@H](O)[C@H]2O[C@@H](n3ccc(=O)[nH]c3=O)[C@H](O)[C@@H]2O)[C@H](O)[C@@H]1O , I found its MIC recorded as 0.65

* * *

System: Mtb H37Rv ATCC27294
Test: Minimum inhibitory concentrations testing against Mtb
Format: cell-based, Mycobacterium tuberculosis
Conditions: Mycobacterium tuberculosis, 168 h; Mtb H37Rv; minimal growth medium; read-out: 1-week MIC in GAST/Fe
result.type: MIC (µg/mL)
Quick reminder: number only, in µg/mL, skip the unit.

# compound CC(=O)N[C@H]1[C@H](O[C@H]2O[C@H](CO)[C@@H](O)[C@H](O)[C@H]2NC(C)=O)O[C@H](C[C@@H](O)[C@H]2O[C@@H](n3ccc(=O)[nH]c3=O)[C@H](O)[C@@H]2O)[C@H](O)[C@@H]1O ; its MIC = 21.3

Looking up CC(=O)N[C@H]1C(O)O[C@H](C[C@@H](O)[C@H]2O[C@@H](n3ccc(=O)[nH]c3=O)[C@H](O)[C@@H]2O)[C@H](O)[C@@H]1O (stereo partly shown) , I see its MIC listed as 42.5

* * *

System: HepG2 cells
Assay: Cell proliferation assay (MTS)
Assay type: cell-based, human
Conditions: serial 2-fold dilutions (Table S6)
Procedure: In sterile 96-well plate, each well was seeded with ∼1x10^5 cells. The cells are then grown confluent overnight in 100 μl DMEM with 10% FBS. The medium is replenished with DMEM with 2% FBS and added vehicle control or test substance the next day. For test substance in methanol, stock was added to 25 μl of DMEM with 2% FBS or PBS and placed in the laminar flow hood to let the methanol evaporate (about 1-3 hrs). […]
Each item that follows carries a reported Minimal Lethal Dose, HepG2.

>  <compound>
CCCCCCCCC(=O)N[C@H]1[C@H](O[C@H]2O[C@H](CO)[C@@H](O)[C@H](O)[C@H]2NC(=O)CCCCCCCC)O[C@H](C[C@@H](O)[C@H]2O[C@@H](n3ccc(=O)[nH]c3=O)[C@H](O)[C@@H]2O)[C@H](O)[C@@H]1O [TUN-9,9, Di-N-nonanoyl-tunicamycin]

>  <tested.target>
HepG2 cells

>  <result.type>
Minimal Lethal Dose, HepG2

>  <assay.result>
> 400 µg/mL

$$$$

// recorded Minimal Lethal Dose, HepG2 for CCCCCCCCCCC(=O)N[C@H]1[C@H](O[C@H]2O[C@H](CO)[C@@H](O)[C@H](O)[C@H]2NC(=O)CCCCCCCCCC)O[C@H](C[C@@H](O)[C@H]2O[C@@H](n3ccc(=O)[nH]c3=O)[C@H](O)[C@@H]2O)[C@H](O)[C@@H]1O [TUN-11,11, Di-N-undecanoyl-tunicamycin] : > 400 µg/mL

* * *

Tested on: B. subtilis EC1524
Assay: Micro-broth dilution and drop plate antimicrobial susceptibility test
Format: cell-based, Bacillus subtilis
Settings: Bacillus subtilis, EC1524
Response field label: string, one of satisfied (MIC strictly below 1 µg/mL) or not satisfied.

Completed entries (count: 2):
>  <compound>
CCCCCCCCCCCC(=O)N[C@H]1[C@H](O[C@H]2O[C@H](CO)[C@@H](O)[C@H](O)[C@H]2NC(=O)CCCCCCCCCCC)O[C@H](C[C@@H](O)[C@H]2O[C@@H](n3ccc(=O)[nH]c3=O)[C@H](O)[C@@H]2O)[C@H](O)[C@@H]1O [TUN-12,12, Di-N-dodecanoyl-tunicamycin]

>  <class.label>
not satisfied

$$$$
>  <compound>
CCCCCCC(=O)N[C@H]1[C@H](O[C@H]2O[C@H](CO)[C@@H](O)[C@H](O)[C@H]2NC(=O)CCCCCC)O[C@H](C[C@@H](O)[C@H]2O[C@@H](n3ccc(=O)[nH]c3=O)[C@H](O)[C@@H]2O)[C@H](O)[C@@H]1O [TUN-7,7, Di-N-heptanoyl tunicamycin]

>  <class.label>
not satisfied

$$$$

Exercise: Here's an entry: CCCCCCCCC(=O)N[C@H]1[C@H](O[C@H]2O[C@H](CO)[C@@H](O)[C@H](O)[C@H]2NC(=O)CCCCCCCC)O[C@H](C[C@@H](O)[C@H]2O[C@@H](n3ccc(=O)[nH]c3=O)[C@H](O)[C@@H]2O)[C@H](O)[C@@H]1O [TUN-9,9, Di-N-nonanoyl-tunicamycin] . Is its MIC below 1 µg/mL?
Key: satisfied

Exercise: # TODO verify MIC < 1 µg/mL strictly for this compound: CCCCCCCCCC(=O)N[C@H]1[C@H](O[C@H]2O[C@H](CO)[C@@H](O)[C@H](O)[C@H]2NC(=O)CCCCCCCCC)O[C@H](C[C@@H](O)[C@H]2O[C@@H](n3ccc(=O)[nH]c3=O)[C@H](O)[C@@H]2O)[C@H](O)[C@@H]1O [TUN-10,10, Di-N-decanoyl-tunicamycin]
Key: satisfied

Exercise: Decide: MIC of CCCCCCCCCCC(=O)N[C@H]1[C@H](O[C@H]2O[C@H](CO)[C@@H](O)[C@H](O)[C@H]2NC(=O)CCCCCCCCCC)O[C@H](C[C@@H](O)[C@H]2O[C@@H](n3ccc(=O)[nH]c3=O)[C@H](O)[C@@H]2O)[C@H](O)[C@@H]1O [TUN-11,11, Di-N-undecanoyl-tunicamycin] strictly below 1 µg/mL?
Key: not satisfied

Exercise: Confirm or reject: MIC of CC(C)=CCC[C@H](C)CC(=O)N[C@H]1[C@H](O[C@H]2O[C@H](CO)[C@@H](O)[C@H](O)[C@H]2NC(=O)C[C@@H](C)CCC=C(C)C)O[C@H](C[C@@H](O)[C@H]2O[C@@H](n3ccc(=O)[nH]c3=O)[C@H](O)[C@@H]2O)[C@H](O)[C@@H]1O [TUN-Cit,Cit, Di-N-citronoyl-tunicamycin] lies strictly below 1 µg/mL
Key: not satisfied

Exercise: Decide: MIC of CCCCCCCC(=O)N[C@H]1[C@H](O[C@H]2O[C@H](CO)[C@@H](O)[C@H](O)[C@H]2NC(=O)CCCCCCC)O[C@H](C[C@@H](O)[C@H]2O[C@@H](n3ccc(=O)[nH]c3=O)[C@H](O)[C@@H]2O)[C@H](O)[C@@H]1O [TUN-8,8, Di-N-octanoyl-tunicamycin] strictly below 1 µg/mL?
Key: satisfied

* * *

Assay: in vivo
Design: species or system C57BL/6 mice
Details: female, C57BL/6, mouse, ip, 30 mg/kg, Concentration, second series
result.type: concentration at 1 h (µM)
Give the number; µM is assumed, so skip it.

Item: CCCCCCCC(=O)N[C@H]1[C@H](O[C@H]2O[C@H](CO)[C@@H](O)[C@H](O)[C@H]2NC(=O)CCCCCCC)O[C@H](C[C@@H](O)[C@H]2O[C@@H](n3ccc(=O)[nH]c3=O)[C@H](O)[C@@H]2O)[C@H](O)[C@@H]1O [TUN-8,8, Di-N-octanoyl-tunicamycin] | concentration at 1 h: 42.3

* * *

Tested on: Raji cells
Assay: Cell proliferation assay (MTS)
Format: cell-based, human
Conditions: 24 hrs
Each item that follows carries a reported LD50 values, Raji.
Output spec: scalar in µg/mL, unitless text.

# LD50 values, Raji (compound: CC(C)=CCC[C@H](C)CC(=O)N[C@H]1[C@H](O[C@H]2O[C@H](CO)[C@@H](O)[C@H](O)[C@H]2NC(=O)C[C@@H](C)CCC=C(C)C)O[C@H](C[C@@H](O)[C@H]2O[C@@H](n3ccc(=O)[nH]c3=O)[C@H](O)[C@@H]2O)[C@H](O)[C@@H]1O ) is 177.75

Lab note: CC(=O)N[C@H]1C(O)O[C@H](C[C@@H](O)[C@H]2O[C@@H](n3ccc(=O)[nH]c3=O)[C@H](O)[C@@H]2O)[C@H](O)[C@@H]1O (stereo partly shown) gave LD50 values, Raji of 303.80

Measured LD50 values, Raji of CCCCCCCCCCCC(=O)N[C@H]1[C@H](O[C@H]2O[C@H](CO)[C@@H](O)[C@H](O)[C@H]2NC(=O)CCCCCCCCCCC)O[C@H](C[C@@H](O)[C@H]2O[C@@H](n3ccc(=O)[nH]c3=O)[C@H](O)[C@@H]2O)[C@H](O)[C@@H]1O : 81.29

According to the records, this compound N[C@H]1[C@H](O[C@H]2O[C@H](CO)[C@@H](O)[C@H](O)[C@H]2N)O[C@H](C[C@@H](O)[C@H]2O[C@@H](n3ccc(=O)[nH]c3=O)[C@H](O)[C@@H]2O)[C@H](O)[C@@H]1O displays LD50 values, Raji of 698.3
